# Tested on: COLO 205 colorectal tumor cells
# assay.explanation: Tumor cell viability inhibition assay (CellTiter-Glo 2.0, 72 hours)
# Type: cell-based
# condition.description: Homo sapiens, COLO 205, 72 h, COLO 205 cell viability
experimental.endpoint: IC50

INSERT INTO measurements (compound, tgt, result) VALUES
  ('Cc1cc(-c2ccc(Cl)cc2OCCn2c(C)nc3c(c2=O)C[C@@H](N(C)[C@H]2C[C@@](C)(O)C2)CC3)c2scc(C(=O)O)c2n1 (single isomer, unassigned)', 'COLO 205 colorectal tumor cells', '> 20 µM'),
  ('Cc1cc(-c2cc(Cl)ccc2OCCn2c(C)nc3c(c2=O)CC(N2CCC(F)(F)CC2)CC3)c2scc(C(=O)O)c2n1 (stereo not drawn)', 'COLO 205 colorectal tumor cells', '< 5 µM'),
  ('Cc1cc(-c2cc(Cl)ccc2OCCn2c(C)nc3c(c2=O)C[C@@](C)(N2CCC[C@]4(C2)CC4(F)F)CC3)c2scc(C(=O)O)c2n1 (single isomer, unassigned)', 'COLO 205 colorectal tumor cells', '< 5 µM'),
  ('Cc1cc(-c2cc(Cl)ccc2OCCn2c(C)nc3c(c2=O)CC(N2CCC4(CC2)CC4(F)F)CC3)c2scc(C(=O)O)c2n1 (stereo not drawn)', 'COLO 205 colorectal tumor cells', '< 5 µM'),
  ('Cc1cc(-c2cc(Cl)ccc2OCCn2c(C)nc3c(c2=O)CC(N(C)C2(c4ccc(F)cc4)CC2)CC3)c2scc(C(=O)NS(C)(=O)=O)c2n1 (stereo not drawn)', 'COLO 205 colorectal tumor cells', '5 to 20 µM'),
  ('Cc1cc(-c2cc(Cl)ccc2OCCn2c(C)nc3c(c2=O)C[C@@H](N2C[C@H]4CC[C@@H]2CC4OC(F)(F)F)CC3)c2scc(C(=O)O)c2n1 (single isomer, unassigned)', 'COLO 205 colorectal tumor cells', '< 5 µM');

###

# Test system: COLO 205 colorectal tumor cells
# assay.explanation: Tumor cell viability inhibition assay (CellTiter-Glo 2.0, 72 hours)
# Format: cell-based
# condition.description: Homo sapiens, COLO 205, 72 h, COLO 205 cell viability
Catalogue of IC50 readings, one per entry.
experimental.endpoint: IC50

INSERT INTO results (compound, experimental_endpoint, result) VALUES
  ('Cc1cc(-c2cc(Cl)ccc2OCCn2c(C)nc3c(c2=O)CC(N(C)C24CC(C)(C2)C4(F)F)CC3)c2scc(C(=O)NS(C)(=O)=O)c2n1 (centres unmarked) [Compound 288]', 'IC50', '5 to 20 µM'),
  ('Cc1cc(-c2cc(Cl)ccc2OCCn2c(C)nc3c(c2=O)CC(N(C)C(=O)C2CN(C)C2)CC3)c2scc(C(=O)O)c2n1 (centres unmarked) [Compound 73]', 'IC50', '> 20 µM'),
  ('Cc1cc(-c2cc(Cl)ccc2OCCn2c(C)nc3c(c2=O)C[C@H](N2CCC(n4ccnn4)CC2)CC3)c2scc(C(=O)O)c2n1 (single isomer, unassigned) [Compound 422]', 'IC50', '5 to 20 µM'),
  ('COc1cc(C2CCN([C@H]3CCc4nc(C)n(CCOc5ccc(Cl)cc5-c5cc(C)nc6c(C(=O)O)csc56)c(=O)c4C3)CC2)ccn1 (single isomer, unassigned) [Compound 576]', 'IC50', '< 5 µM'),
  ('COC1CCN([C@H]2Cc3c(nc(C)n(CCOc4ccc(Cl)cc4-c4cc(C)nc5c(C(=O)O)csc45)c3=O)C3(CC3)C2)CC1 (single isomer, unassigned) [Compound 371]', 'IC50', '< 5 µM');

###

# System: COLO 205 colorectal tumor cells
# assay.explanation: Tumor cell viability inhibition assay (CellTiter-Glo 2.0, 72 hours)
# Format: cell-based
# condition.description: Homo sapiens, COLO 205, 72 h, COLO 205 cell viability
pIC50: −log10 of the molar value.
experimental.endpoint: pIC50

INSERT INTO assay_data (compound, tgt, result) VALUES
  ('Cc1cc(-c2cc(Cl)ccc2OCCn2c(C)nc3c(c2=O)C[C@@H](N2CCC(N4CC(F)(F)C4)CC2)CC3)c2scc(C(=O)O)c2n1 (single isomer, unassigned)', 'COLO 205 colorectal tumor cells', '4.70 to 5.30'),
  ('Cc1cc(-c2cc(Cl)ccc2OCCn2c(C)nc3c(c2=O)CC(N2CC4CN(C)CC4C2)CC3)c2scc(C(=O)O)c2n1 (centres unmarked)', 'COLO 205 colorectal tumor cells', '< 4.70'),
  ('Cc1cc(-c2cc(Cl)ccc2OCCn2c(C)nc3c(c2=O)C[C@@H](N2C[C@H]4CC(F)(F)[C@H]4C2)CC3)c2scc(C(=O)O)c2n1 (single isomer, unassigned)', 'COLO 205 colorectal tumor cells', '> 5.30'),
  ('Cc1cc(-c2cc(Cl)ccc2OCCn2c(C)nc3c(c2=O)C[C@@H](N2CCC(n4cc(Cl)cn4)CC2)CC3)c2scc(C(=O)O)c2n1 (single isomer, unassigned)', 'COLO 205 colorectal tumor cells', '> 5.30'),
  ('Cc1cc(-c2cc(Cl)ccc2OCCn2c(C)nc3c(c2=O)CC(N2CC4(CCC(F)(F)CC4)C2)CC3)c2scc(C(=O)NS(C)(=O)=O)c2n1 (single isomer, unassigned)', 'COLO 205 colorectal tumor cells', '> 5.30'),
  ('Cc1nc2c(c(=O)n1CC#Cc1ccc(Cl)cc1-c1ccnc3c(C(=O)O)csc13)CC(N(C)C)CC2 (centres unmarked) [Compound 350]', 'COLO 205 colorectal tumor cells', '< 4.70'),
  ('Cc1cc(-c2cc(Cl)ccc2OCCn2c(C)nc3c(c2=O)C[C@H](N2CC[C@H](OC(F)(F)F)C2)CC3)c2scc(C(=O)O)c2n1 (single isomer, unassigned)', 'COLO 205 colorectal tumor cells', '> 5.30'),
  ('Cc1cc(-c2cc(Cl)ccc2OCCn2c(C)nc3c(c2=O)C[C@@H](N(C)[C@H]2CC[C@@](C)(O)C2)CC3)c2scc(C(=O)O)c2n1 (single isomer, unassigned)', 'COLO 205 colorectal tumor cells', '< 4.70'),
  ('Cc1cc(-c2cc(Cl)ccc2OCCn2c(C)nc3c(c2=O)CC(N(C)C2CC2)CC3)c2scc(C(=O)O)c2n1 (centres unmarked) [Compound 46]', 'COLO 205 colorectal tumor cells', '> 5.30'),
  ('Cc1cc(-c2cc(Cl)ccc2OCCn2c(C)nc3c(c2=O)C[C@@H](N2CCC(n4cccn4)CC2)CC3)c2scc(C(=O)O)c2n1 (single isomer, unassigned)', 'COLO 205 colorectal tumor cells', '> 5.30'),
  ('Cc1cc(-c2cc(Cl)ccc2OCCn2c(C)nc3c(c2=O)CC(N(C)CC2CC(F)(F)C2)CC3)c2scc(C(=O)NCC(F)F)c2n1 (centres unmarked)', 'COLO 205 colorectal tumor cells', '4.70 to 5.30');

###

# Test system: COLO 205 colorectal tumor cells
# assay.explanation: Tumor cell viability inhibition assay (CellTiter-Glo 2.0, 72 hours)
# Type: cell-based
# condition.description: Homo sapiens, COLO 205, 72 h, COLO 205 cell viability
pIC50: −log10 of the molar value.
Entries and their pIC50 values follow.
experimental.endpoint: pIC50

INSERT INTO measurements (molecule, experimental_endpoint, result) VALUES
  ('Cc1cc(-c2cc(Cl)ccc2OCCn2c(C)nc3c(c2=O)CC(N(C)CC(F)F)CC3)c2scc(C(=O)O)c2n1 (centres unmarked) [Compound 58]', 'pIC50', '> 5.30'),
  ('Cc1cc(-c2cc(Cl)ccc2OCCn2c(C)nc3c(c2=O)CC(N2CCc4ncsc4C2)CC3)c2scc(C(=O)O)c2n1 (centres unmarked) [Compound 164]', 'pIC50', '> 5.30'),
  ('Cc1cc(-c2cc(Cl)ccc2OCCn2c(C)nc3c(c2=O)CC(N2CCC4(CC2)CC4(F)F)CC32CC2)c2scc(C(=O)NS(C)(=O)=O)c2n1 (single isomer, unassigned) [Compound 632]', 'pIC50', '> 5.30'),
  ('Cc1cc(-c2cc(Cl)ccc2OCCn2c(C)nc3c(c2=O)C[C@H](N2CCC(c4nc(C(F)(F)F)cs4)CC2)CC3)c2scc(C(=O)O)c2n1 (single isomer, unassigned) [Compound 577]', 'pIC50', '> 5.30'),
  ('Cc1cc(-c2cc(Cl)ccc2OCCn2c(C)nc3c(c2=O)CC(N2CCC(OC(F)(F)F)CC2)CC3)c2scc(C(=O)NS(=O)(=O)C(F)F)c2n1 (single isomer, unassigned) [Compound 416]', 'pIC50', '4.70 to 5.30'),
  ('Cc1cc(-c2cc(Cl)ccc2OCCn2c(C)nc3c(c2=O)CC(N2CCC4(CCN(CC(F)(F)F)C4)C2)CC3)c2scc(C(=O)O)c2n1 (single isomer, unassigned) [Compound 505]', 'pIC50', '> 5.30'),
  ('CO[C@H]1CCN([C@@H]2CCc3nc(C)n(CCOc4ccc(Cl)cc4-c4cc(C)nc5c(C(=O)O)csc45)c(=O)c3C2)CC1(C)C (single isomer, unassigned) [Compound 415]', 'pIC50', '> 5.30'),
  ('Cc1cc(-c2cc(Cl)ccc2OCCn2c(C)nc3c(c2=O)C[C@@H](N2CCC(c4cncc(S(=O)(=O)NC(C)(C)C)c4)CC2)CC3)c2scc(C(=O)O)c2n1 (single isomer, unassigned) [Compound 456]', 'pIC50', '4.70 to 5.30'),
  ('Cc1cc(-c2cc(Cl)ccc2OCCn2c(C)nc3c(c2=O)C[C@H](N2CC4(CCC(F)(F)CC4)C2)CC3)c2scc(C(=O)O)c2n1 (single isomer, unassigned) [Compound 131]', 'pIC50', '> 5.30'),
  ('Cc1cc(-c2cc(Cl)ccc2OCCn2c(C)nc3c(c2=O)CC(N(C2CCC2)C2CC2)CC3)c2scc(C(=O)NS(C)(=O)=O)c2n1 (centres unmarked) [Compound 317]', 'pIC50', '> 5.30'),
  ('Cc1cc(-c2cc(Cl)ccc2OCCn2c(C)cc3c(c2=O)CC2(CC3)CN(C)C2)c2scc(C(=O)O)c2n1 [Compound 269]', 'pIC50', '< 4.70');
